- STUDY TARGET: human NMB receptor (BB1) (Homo sapiens)
- Construct: expressed in transfected cells; membranes prepared from the cells
- ASSAY COMMENT: BB1 binding assay ([125I][Tyr4]bombesin displacement, CHO-K1 membranes)
- TEST CONTEXT: binding studies to the bombesin receptors
MEASURE NAME: IC50 (µM)
Write the number in µM without appending the unit.

## Input Form: Entry = COc1ccc(C2(CNC(=O)[C@](C)(Cc3c[nH]c4ccccc34)NC(=O)c3cc4ccccc4[nH]3)CCCCC2)nc1 | System = human NMB receptor (BB1) (Homo sapiens) | IC50 = ____
## Output 0.011

* * *

- STUDY TARGET: human NMB receptor (BB1) (Homo sapiens)
- Construct: expressed in transfected cells; membranes prepared from the cells
- ASSAY COMMENT: BB1 binding assay ([125I][Tyr4]bombesin displacement, CHO-K1 membranes)
- TEST CONTEXT: second 'TABLE 4', N-terminal urethane derivatives of Intermediate III-7
# IC50 binned as lower range (below 600 nM), middle range (600 nM to below 1000 nM), upper range (1000 nM or more)

## Input Which IC50 band matches C[C@@](Cc1c[nH]c2ccccc12)(NC(=O)OCc1cccc(C(F)(F)F)c1)C(=O)NCC1(c2ccccn2)CCCCC1 ?
## Output lower range

## Input Which IC50 band matches C[C@@](Cc1c[nH]c2ccccc12)(NC(=O)OCc1ccc(Cl)cc1)C(=O)NCC1(c2ccccn2)CCCCC1 ?
## Output middle range

## Input Which IC50 band matches C[C@@](Cc1c[nH]c2ccccc12)(NC(=O)OC1Cc2ccccc2C1)C(=O)NCC1(c2ccccn2)CCCCC1 ?
## Output middle range

## Input Which IC50 band matches COc1ccccc1COC(=O)N[C@@](C)(Cc1c[nH]c2ccccc12)C(=O)NCC1(c2ccccn2)CCCCC1 ?
## Output middle range

## Input Which IC50 band matches COc1ccc(COC(=O)N[C@@](C)(Cc2c[nH]c3ccccc23)C(=O)NCC2(c3ccccn3)CCCCC2)cc1OC ?
## Output upper range

## Input Which IC50 band matches Cc1cccc(COC(=O)N[C@@](C)(Cc2c[nH]c3ccccc23)C(=O)NCC2(c3ccccn3)CCCCC2)c1 ?
## Output middle range

## Input Which IC50 band matches C[C@@](Cc1c[nH]c2ccccc12)(NC(=O)OCc1ccccc1Cl)C(=O)NCC1(c2ccccn2)CCCCC1 ?
## Output middle range

## Input Which IC50 band matches C[C@@](Cc1c[nH]c2ccccc12)(NC(=O)OCc1ccc([N+](=O)[O-])cc1)C(=O)NCC1(c2ccccn2)CCCCC1 ?
## Output lower range

## Input Which IC50 band matches C[C@@](Cc1c[nH]c2ccccc12)(NC(=O)OCc1ccc(C(F)(F)F)cc1)C(=O)NCC1(c2ccccn2)CCCCC1 ?
## Output upper range

## Input Which IC50 band matches C[C@@](Cc1c[nH]c2ccccc12)(NC(=O)OCc1ccc(Cl)c(Cl)c1)C(=O)NCC1(c2ccccn2)CCCCC1 ?
## Output lower range

## Input Which IC50 band matches C[C@@](Cc1c[nH]c2ccccc12)(NC(=O)OCc1cccc2ccccc12)C(=O)NCC1(c2ccccn2)CCCCC1 ?
## Output lower range

## Input Which IC50 band matches C[C@@](Cc1c[nH]c2ccccc12)(NC(=O)OCc1cccc(C#N)c1)C(=O)NCC1(c2ccccn2)CCCCC1 ?
## Output lower range

## Input Which IC50 band matches CCOc1cccc(COC(=O)N[C@@](C)(Cc2c[nH]c3ccccc23)C(=O)NCC2(c3ccccn3)CCCCC2)c1 ?
## Output upper range

## Input Which IC50 band matches C[C@@](Cc1c[nH]c2ccccc12)(NC(=O)OCc1cccc(Oc2ccccc2)c1)C(=O)NCC1(c2ccccn2)CCCCC1 ?
## Output upper range

## Input Which IC50 band matches CC(C)(C)c1ccc(COC(=O)N[C@@](C)(Cc2c[nH]c3ccccc23)C(=O)NCC2(c3ccccn3)CCCCC2)cc1 ?
## Output upper range

## Input Which IC50 band matches COc1ccc(COC(=O)N[C@@](C)(Cc2c[nH]c3ccccc23)C(=O)NCC2(c3ccccn3)CCCCC2)cc1 ?
## Output upper range

* * *

Hi there, I'd appreciate the recorded IC50 for every entry that follows.
- STUDY TARGET: human NMB receptor (BB1) (Homo sapiens, UniProt P28336)
- Construct: expressed in transfected cells; membranes prepared from the cells
- Sequence (P28336 whole entry): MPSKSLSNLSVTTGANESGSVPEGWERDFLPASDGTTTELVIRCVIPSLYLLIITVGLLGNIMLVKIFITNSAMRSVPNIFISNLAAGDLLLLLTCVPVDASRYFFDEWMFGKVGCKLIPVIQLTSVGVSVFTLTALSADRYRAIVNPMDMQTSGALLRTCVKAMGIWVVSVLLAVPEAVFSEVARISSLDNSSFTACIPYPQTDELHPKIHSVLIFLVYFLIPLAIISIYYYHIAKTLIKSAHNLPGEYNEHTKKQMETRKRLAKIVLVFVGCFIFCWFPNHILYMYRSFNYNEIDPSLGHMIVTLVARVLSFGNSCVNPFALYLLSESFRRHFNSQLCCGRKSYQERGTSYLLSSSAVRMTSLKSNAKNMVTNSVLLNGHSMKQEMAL
- ASSAY COMMENT: BB1 binding assay ([125I][Tyr4]bombesin displacement, CHO-K1 membranes)
- TEST CONTEXT: Table 3, N-acyl derivatives of Intermediate III-7
Write the number in µM without appending the unit.

## Input So what does the record say about IC50 for C[C@@](Cc1c[nH]c2ccccc12)(NC(=O)c1cnc2ccccc2n1)C(=O)NCC1(c2ccccn2)CCCCC1 [Example 78] ?
## Output 1.42

## Input So what does the record say about IC50 for C[C@@](Cc1c[nH]c2ccccc12)(NC(=O)c1ccccc1[N+](=O)[O-])C(=O)NCC1(c2ccccn2)CCCCC1 [Example 45] ?
## Output 4.58

## Input So what does the record say about IC50 for Cc1ccc(C(=O)N[C@@](C)(Cc2c[nH]c3ccccc23)C(=O)NCC2(c3ccccn3)CCCCC2)s1 [Example 75] ?
## Output 1.66

## Input So what does the record say about IC50 for Cc1ccccc1C(=O)N[C@@](C)(Cc1c[nH]c2ccccc12)C(=O)NCC1(c2ccccn2)CCCCC1 [Example 47] ?
## Output 3.28

## Input So what does the record say about IC50 for Cc1cccc(C(=O)N[C@@](C)(Cc2c[nH]c3ccccc23)C(=O)NCC2(c3ccccn3)CCCCC2)n1 [Example 76] ?
## Output 2.82

## Input So what does the record say about IC50 for C[C@@](Cc1c[nH]c2ccccc12)(NC(=O)c1ccccn1)C(=O)NCC1(c2ccccn2)CCCCC1 [Example 57] ?
## Output 3.71

## Input So what does the record say about IC50 for C[C@@](Cc1c[nH]c2ccccc12)(NC(=O)c1cccc2[nH]ccc12)C(=O)NCC1(c2ccccn2)CCCCC1 [Example 68] ?
## Output 4.5

## Input So what does the record say about IC50 for C[C@@](Cc1c[nH]c2ccccc12)(NC(=O)c1cccc(Cl)c1)C(=O)NCC1(c2ccccn2)CCCCC1 [Example 39] ?
## Output 1.27

## Input So what does the record say about IC50 for C[C@@](Cc1c[nH]c2ccccc12)(NC(=O)c1ccc(S(C)(=O)=O)cc1)C(=O)NCC1(c2ccccn2)CCCCC1 [Example 37] ?
## Output 2.27

## Input So what does the record say about IC50 for Cc1cc(C(=O)N[C@@](C)(Cc2c[nH]c3ccccc23)C(=O)NCC2(c3ccccn3)CCCCC2)no1 [Example 62] ?
## Output 4.13

## Input So what does the record say about IC50 for C[C@@](Cc1c[nH]c2ccccc12)(NC(=O)Cc1ccsc1)C(=O)NCC1(c2ccccn2)CCCCC1 [Example 56] ?
## Output 1.44

## Input So what does the record say about IC50 for C[C@@](Cc1c[nH]c2ccccc12)(NC(=O)c1ccc2cc[nH]c2c1)C(=O)NCC1(c2ccccn2)CCCCC1 [Example 66] ?
## Output 1.6

## Input So what does the record say about IC50 for CN(C)c1ccc(CC(=O)N[C@@](C)(Cc2c[nH]c3ccccc23)C(=O)NCC2(c3ccccn3)CCCCC2)cc1 [Example 83] ?
## Output 2.71

## Input So what does the record say about IC50 for C[C@@](Cc1c[nH]c2ccccc12)(NC(=O)c1ncoc1-c1ccccc1)C(=O)NCC1(c2ccccn2)CCCCC1 [Example 80] ?
## Output 2.66

* * *

- STUDY TARGET: human NMB receptor (BB1) (Homo sapiens)
- Construct: expressed in transfected cells; membranes prepared from the cells
- ASSAY COMMENT: BB1 binding assay ([125I][Tyr4]bombesin displacement, CHO-K1 membranes)
Hi there, I'd appreciate the recorded IC50 for every entry that follows.
Write the number in nM without appending the unit.

## Input So what does the record say about IC50 for C[C@@](Cc1c[nH]c2ccccc12)(NS(=O)(=O)c1cccc2ccccc12)C(=O)NCC1(c2ccccn2)CCCCC1 [Example 115] ?
## Output 185

## Input So what does the record say about IC50 for C[C@@](Cc1c[nH]c2ccccc12)(NS(=O)(=O)c1ccc(-c2ccon2)s1)C(=O)NCC1(c2ccccn2)CCCCC1 [Example 141] ?
## Output 534

## Input So what does the record say about IC50 for C[C@@](Cc1c[nH]c2ccccc12)(NS(=O)(=O)c1cccc2nonc12)C(=O)NCC1(c2ccccn2)CCCCC1 [Example 139] ?
## Output 507

## Input So what does the record say about IC50 for CCCCc1ccc(S(=O)(=O)N[C@@](C)(Cc2c[nH]c3ccccc23)C(=O)NCC2(c3ccccn3)CCCCC2)cc1 [Example 168] ?
## Output 492

## Input So what does the record say about IC50 for C[C@@](Cc1c[nH]c2ccccc12)(NS(=O)(=O)c1cccc(Cl)c1)C(=O)NCC1(c2ccccn2)CCCCC1 [Example 130] ?
## Output 331

## Input So what does the record say about IC50 for C[C@@](Cc1c[nH]c2ccccc12)(NS(=O)(=O)Cc1ccccc1[N+](=O)[O-])C(=O)NCC1(c2ccccn2)CCCCC1 [Example 142] ?
## Output 430

## Input So what does the record say about IC50 for C[C@@](Cc1c[nH]c2ccccc12)(NS(=O)(=O)c1ccc(Cl)s1)C(=O)NCC1(c2ccccn2)CCCCC1 [Example 128] ?
## Output 404

## Input So what does the record say about IC50 for C[C@@](Cc1c[nH]c2ccccc12)(NS(=O)(=O)c1ccc([N+](=O)[O-])cc1[N+](=O)[O-])C(=O)NCC1(c2ccccn2)CCCCC1 [Example 162] ?
## Output 475
